System: SF-539 CNS
Assay: NCI tumour cell line growth inhibition, 48 h
Measurement type: log10 of TGI (log10 of the value in µM)
// stored as log10 of TGI expressed in µM

Parameter requested: log10 of TGI. Apply to each item below.
1. O=C1CC/C(=C/COc2cc(=O)oc3ccccc23)O1
2. Cc1cc(O)c(C2=NN(c3ccc(S(N)(=O)=O)cc3)C(/C=C/c3ccccc3)C2)cc1Cl (stereo not drawn)
3. CC1=Nc2c([nH]c(=S)[nH]c2=O)NC(c2c(Cl)cccc2Cl)C1 (stereo not drawn)
4. CCCCCCCCCCCc1c(O)c(=O)c2c(oc3c(=O)c(CCCCCCCCCCC)c(O)c(=O)c3n2-c2ccc(N(C)C)cc2)c1=O
5. CC(C)(C)OC(=O)NCc1cccc(N=C=S)c1

Solution:
1.32
1.15
0.62
1.60
1.78

###

Assignment: determine reported TGI for the given compounds.
Test system: DLD-1 colon
Experiment: NCI tumour cell line growth inhibition, 48 h

Answered cases to consult:
O=C(CCCN1CCC(C(O)c2ccc(F)cc2)CC1)c1ccc(F)cc1 (stereo unspecified) ... 120 µM
O=c1[nH]cnc2c(COCCO)c[nH]c12 ... > 100 µM
CC12CCC(CC1)C(C)(C)O2 ... 103 µM
CC([O-])=C1C(=O)c2ccccc2C1=O.CC([O-])=C1C(=O)c2ccccc2C1=O.CC[O-].CC[O-].[Ti+4] ... > 100 µM
O=C1CCCCC12CCC/C2=N\O (stereo unspecified) ... > 100 µM

As a next step, examine the compound that follows.
Exercise: Please report the measured TGI for CC1=Nc2c([nH]c(=S)[nH]c2=O)NC(c2c(Cl)cccc2Cl)C1 (stereo unspecified)
Solution: 5.85 µM

###

Test system: NCI-H460 lung
Assay: NCI tumour cell line growth inhibition, 48 h
Measurement type: TGI

Answered cases to consult:
CC1OC2OC3C(OCC(O)C3O)OC(=O)[C@]34CCC(C)(C)CC3C3=CCC5[C@@]6(C)C[C@H](O)[C@H](OC7OC(CO)C(O)C(O)C7OC7OCC(OC(=O)CC(C)(O)CC(=O)OC1C(O)C2O)C(O)C7O)[C@@](C)(CO)C6CC[C@@]5(C)[C@]3(C)CC4 (stereo partly drawn) ... 23.9 µM
O=C1CSC(c2ccc(Cl)cc2Cl)N1c1ccc(Oc2ccc(Cl)cc2)c(Cl)c1 (stereo not drawn) ... 84.4 µM
N/C1=C/C(=O)NC(=O)c2c(c3ccccc3oc2=O)C1 ... > 100 µM
CC12CCC(CC1)C(C)(C)O2 ... 12.3 µM
CCOC(=O)C1(C#N)CC1 ... > 100 µM

Parameter requested: TGI. Apply to each item below.
1. C[C@H](CCC1SC1(C)C)C1CCC2(C)C3=C(CC[C@]12C)[C@@]1(C)CC[C@H](O)C(C)(C)C1CC3 (stereo partly drawn)
2. C=C(C(=C)P(=S)(C(C)C)C(C)C)P(=S)(C(C)C)C(C)C
3. O=C1c2cccnc2C(=O)c2c1c(C(=O)OCCCN1CCCCC1)c1ccccn21
4. CCOC(=O)/C=C(\C(=O)OCC)n1cc(C)c(=O)n(Cc2cnnn2COCCOC(C)=O)c1=O
5. CC(C)=CC(=O)c1[nH]c2ccccc2c1CC(=O)NCCc1cncn1C
6. CC(=O)c1ccc(NC(=O)C(=O)C(C#N)CC(C)(C)C=O)cc1 (stereo not drawn)

Solution:
> 100 µM
> 100 µM
0.0122 µM
35.6 µM
> 100 µM
> 100 µM

Each recorded value in this set is attributed to PubChem BioAssay (NCI).
